Target: T1, Human VE-PTP (HPTP-β) containing first eight FN3 repeats with C-terminal His6 tag (Human ½ VE-PTP ECD) (human, UniProt P23467 23-820)
T1 construct: Produced in HEK293 cells and purified by the His tag; it was not cut off; also called Human Beta ½ ECD
T1 sequence: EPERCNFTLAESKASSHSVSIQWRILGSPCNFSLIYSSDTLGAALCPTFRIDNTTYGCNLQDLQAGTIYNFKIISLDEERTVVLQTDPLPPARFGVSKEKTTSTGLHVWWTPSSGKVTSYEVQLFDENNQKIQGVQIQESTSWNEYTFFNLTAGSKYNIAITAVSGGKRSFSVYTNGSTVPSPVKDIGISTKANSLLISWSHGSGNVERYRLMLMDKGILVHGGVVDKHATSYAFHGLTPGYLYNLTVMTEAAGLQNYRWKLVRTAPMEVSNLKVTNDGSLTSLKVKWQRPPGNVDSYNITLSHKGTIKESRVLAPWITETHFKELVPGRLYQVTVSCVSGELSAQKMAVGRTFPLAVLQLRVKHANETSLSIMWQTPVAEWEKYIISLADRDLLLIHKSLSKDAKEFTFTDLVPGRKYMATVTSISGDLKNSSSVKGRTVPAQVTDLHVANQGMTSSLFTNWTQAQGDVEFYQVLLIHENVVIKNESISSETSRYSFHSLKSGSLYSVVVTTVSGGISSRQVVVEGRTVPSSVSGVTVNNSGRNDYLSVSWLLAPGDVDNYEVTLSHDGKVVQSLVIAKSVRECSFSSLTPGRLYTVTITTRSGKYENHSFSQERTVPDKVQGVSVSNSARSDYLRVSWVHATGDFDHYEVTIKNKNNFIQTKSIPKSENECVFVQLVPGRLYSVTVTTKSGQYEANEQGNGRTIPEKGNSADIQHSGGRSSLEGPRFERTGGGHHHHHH
Assay: SPR (Biacore 3000), antibody captured on anti-human IgG, antigen as analyte 100 nM (single concentration)
Examples of binders with documented Kd follow.
Enter your answer as a number in nM; do not include the unit.

Some binders with known Kd results, for comparison:
binder="humanized R15E6 variant HC3LC2 (antibody, human IgG4 S228P, kappa, V domains shown, Human IgG4 (S228P) / kappa, expressed in CHO cells; Signal peptides left out by range; also called VH3-VL2) VH: EVQLVESGGGLVQPGRSLRLSCTASGFTFNANAMNWVRQAPGKGLEWVGRIRTKSNNYATYYAGSVKDRFTISRDDSKNIAYLQMNSLKTEDTAVYYCVRDYYGSSAWITYWGQGTLVTVSS VL: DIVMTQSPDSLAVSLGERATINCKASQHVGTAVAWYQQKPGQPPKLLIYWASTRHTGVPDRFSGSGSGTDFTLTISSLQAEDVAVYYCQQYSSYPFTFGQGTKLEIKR" test_readout=Kd value_measured=4.84
binder="humanized R15E6 variant HC2LC4 (antibody, human IgG4 S228P, kappa, V domains shown, Human IgG4 (S228P) / kappa, expressed in CHO cells; Signal peptides left out by range; also called VH2-VL4) VH: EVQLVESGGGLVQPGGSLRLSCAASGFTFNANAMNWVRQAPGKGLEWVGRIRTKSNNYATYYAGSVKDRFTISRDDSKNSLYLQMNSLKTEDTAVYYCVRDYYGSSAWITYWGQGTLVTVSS VL: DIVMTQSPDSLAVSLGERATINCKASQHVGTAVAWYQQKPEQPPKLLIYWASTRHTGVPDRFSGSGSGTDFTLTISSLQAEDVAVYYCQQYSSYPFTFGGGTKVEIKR" test_readout=Kd value_measured=13
binder="humanized R15E6 variant HC2LC1 (antibody, human IgG4 S228P, kappa, V domains shown, Human IgG4 (S228P) / kappa, expressed in CHO cells; Signal peptides left out by range; also called VH2-VL1) VH: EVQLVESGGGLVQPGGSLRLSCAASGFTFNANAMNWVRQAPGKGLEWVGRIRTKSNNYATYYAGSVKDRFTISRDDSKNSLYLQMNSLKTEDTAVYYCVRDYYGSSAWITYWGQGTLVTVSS VL: DVVMTQSPSFLSASVGDRVTITCKASQHVGTAVAWYQQRPGKAPKLLIYWASTRHTGVPSRFSGSGSGTEFTLTISSLQPEDFATYFCQQYSSYPFTFGGGTKLEIKR" test_readout=Kd value_measured=13.8

Let us examine a further case.
Quick one: give measured Kd for humanized R15E6 variant HC2LC2 (antibody, human IgG4 S228P, kappa, V domains shown, Human IgG4 (S228P) / kappa, expressed in CHO cells; Signal peptides left out by range; also called VH2-VL2) VH: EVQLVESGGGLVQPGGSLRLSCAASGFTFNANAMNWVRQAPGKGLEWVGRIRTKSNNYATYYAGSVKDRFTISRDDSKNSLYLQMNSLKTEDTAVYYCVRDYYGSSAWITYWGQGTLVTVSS VL: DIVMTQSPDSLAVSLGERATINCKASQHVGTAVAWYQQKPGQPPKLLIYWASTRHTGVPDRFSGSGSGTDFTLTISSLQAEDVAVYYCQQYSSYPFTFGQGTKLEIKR 3.51
